Ref: patent US20100227853A1

target: PDE4D2 (Homo sapiens, UniProt Q08499); construct: targets used in the assays are full-length proteins (as opposed to simply the catalytic domain); assay: 5FOA growth assay in fission yeast strain expressing PDE4D2; conditions: OD600 0.6; read-out: ED50 for 5FOA growth assays, PDE4D2
Sequence (Q08499 303-809): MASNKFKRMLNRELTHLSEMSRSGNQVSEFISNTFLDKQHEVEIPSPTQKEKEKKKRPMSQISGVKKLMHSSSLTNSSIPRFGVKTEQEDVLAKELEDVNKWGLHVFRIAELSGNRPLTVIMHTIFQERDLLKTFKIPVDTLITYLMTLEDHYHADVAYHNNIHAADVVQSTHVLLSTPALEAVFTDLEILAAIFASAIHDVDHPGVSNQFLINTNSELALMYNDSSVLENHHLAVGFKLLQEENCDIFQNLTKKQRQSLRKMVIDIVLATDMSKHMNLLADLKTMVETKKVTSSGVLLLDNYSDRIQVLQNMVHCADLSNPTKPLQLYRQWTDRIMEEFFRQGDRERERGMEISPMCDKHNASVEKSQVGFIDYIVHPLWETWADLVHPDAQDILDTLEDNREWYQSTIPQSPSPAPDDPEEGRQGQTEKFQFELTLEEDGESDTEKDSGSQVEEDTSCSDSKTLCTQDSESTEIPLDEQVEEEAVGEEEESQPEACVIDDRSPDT
resultType: pEC50
Hey, just a heads up that pEC50 is the negative log base 10 of the concentration in molar.

Value (pEC50, PDE4D2 (Homo sapiens, UniProt Q08499)) for record CCN(CC)c1ncnc2sc3c(c12)CCCC3 [BC44] = 3.85

---

molecular target: PDE4B2 (Homo sapiens); test: 5FOA growth assay in fission yeast strain expressing PDE4B2; assay type: cell-based; design: targets used in the assays are full-length proteins (as opposed to simply the catalytic domain); expressed in transfected cells; host or cells: Schizosaccharomyces pombe; conditions: value marked (m); OD600 0.6; read-out: ED50 for 5FOA growth assays, PDE4B2 (m)
Sequence (Q07343 1-564 isoform Q07343-2, species assumed): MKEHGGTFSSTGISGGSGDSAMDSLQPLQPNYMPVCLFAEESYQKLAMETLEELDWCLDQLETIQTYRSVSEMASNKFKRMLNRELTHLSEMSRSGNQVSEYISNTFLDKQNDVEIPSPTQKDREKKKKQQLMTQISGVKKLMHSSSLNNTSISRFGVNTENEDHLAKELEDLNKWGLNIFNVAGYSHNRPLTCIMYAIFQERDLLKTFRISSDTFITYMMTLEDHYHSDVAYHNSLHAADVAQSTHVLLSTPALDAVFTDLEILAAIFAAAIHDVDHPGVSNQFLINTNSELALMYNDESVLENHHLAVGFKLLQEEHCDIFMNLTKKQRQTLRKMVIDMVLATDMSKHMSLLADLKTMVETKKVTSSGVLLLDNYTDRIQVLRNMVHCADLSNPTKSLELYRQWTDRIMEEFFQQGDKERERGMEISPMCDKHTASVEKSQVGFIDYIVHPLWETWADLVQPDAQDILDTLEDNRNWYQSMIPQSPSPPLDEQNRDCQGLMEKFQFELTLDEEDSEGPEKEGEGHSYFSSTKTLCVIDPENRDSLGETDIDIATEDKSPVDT
resultType: EC50 (nM)
// units = nM; emit number, no label

EC50 for CCC1CCc2c(sc3ncnc(N4CCOCC4)c23)C1 (stereo not shown) is 1700

---

biological target: PDE4B3 (Mus musculus); construct: targets used in the assays are full-length proteins (as opposed to simply the catalytic domain); expressed in transfected cells; host or cells: Schizosaccharomyces pombe, PDE gene integrated in place of cgs2; experiment: 5FOA growth assay in fission yeast strain expressing PDE4B3; type: cell-based, Murine; conditions: high throughput 5FOA growth screen
Sequence (Q8VBU5 1-721): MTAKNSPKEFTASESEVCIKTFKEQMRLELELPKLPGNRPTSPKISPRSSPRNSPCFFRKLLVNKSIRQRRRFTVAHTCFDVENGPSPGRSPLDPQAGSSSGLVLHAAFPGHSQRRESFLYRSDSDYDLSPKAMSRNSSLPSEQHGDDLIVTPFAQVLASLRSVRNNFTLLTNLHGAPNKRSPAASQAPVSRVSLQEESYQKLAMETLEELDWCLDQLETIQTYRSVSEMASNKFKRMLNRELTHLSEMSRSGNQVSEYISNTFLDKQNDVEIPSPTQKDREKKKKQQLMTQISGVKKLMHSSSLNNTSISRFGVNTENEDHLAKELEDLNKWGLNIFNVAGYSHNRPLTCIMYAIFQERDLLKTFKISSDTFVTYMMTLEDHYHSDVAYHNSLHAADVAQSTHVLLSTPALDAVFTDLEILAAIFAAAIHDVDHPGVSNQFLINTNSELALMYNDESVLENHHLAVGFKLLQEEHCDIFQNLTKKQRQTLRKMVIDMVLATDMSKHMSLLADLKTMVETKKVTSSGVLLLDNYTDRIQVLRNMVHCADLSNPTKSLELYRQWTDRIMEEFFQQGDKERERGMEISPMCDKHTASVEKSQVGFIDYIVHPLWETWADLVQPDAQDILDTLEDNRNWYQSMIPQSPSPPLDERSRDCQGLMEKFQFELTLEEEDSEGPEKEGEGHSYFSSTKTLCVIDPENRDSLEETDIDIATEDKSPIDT
Measured Composite Z score, PDE4B3, listed per entry.
Please state the value as a number alone, without comment.

[
  {
    "molecule": "Cc1c(C(=O)Nc2ccc(F)cc2F)sc2ncnc(N3CCC(C)CC3)c12 [BC58]",
    "resultType": "Composite Z score, PDE4B3",
    "experimentalValue": 78.927
  },
  {
    "molecule": "CC1CC(=O)N(c2ncnc3sc4c(c23)CCCC4)N1 (stereo not drawn) [2054 E16]",
    "resultType": "Composite Z score, PDE4B3",
    "experimentalValue": 0.62
  },
  {
    "molecule": "Cc1c(C(=O)N(C)Cc2ccccc2)sc2ncnc(N3CCN(c4ccccc4)CC3)c12 [Compound 2041G21]",
    "resultType": "Composite Z score, PDE4B3",
    "experimentalValue": 33.162
  },
  {
    "molecule": "CCNc1nc(SCc2ccc(Cl)cc2)nc2sc3c(c12)CCN(C)C3 [Compound 2054P05]",
    "resultType": "Composite Z score, PDE4B3",
    "experimentalValue": "−0.211"
  },
  {
    "molecule": "CCC1CCc2c(sc3ncnc(N4CCOCC4)c23)C1 (stereo not drawn) [BC33]",
    "resultType": "Composite Z score, PDE4B3",
    "experimentalValue": 42.416
  }
]

Composite Z score, PDE4B3 for c1nc(NC2CCCC2)c2c3c(sc2n1)CCC3 [2084 E21] is 0.593

Composite Z score, PDE4B3 for COc1ccccc1C(=O)Nc1ncnc2sc3c(c12)CCCC3 [Compound 1415M01] is 1.1976

Composite Z score, PDE4B3 for CCOC(CNc1nc(C)nc2sc3c(c12)CCCC3)OCC [Compound 2040D04] is 4.66

Composite Z score, PDE4B3 for Cc1nc(N2CCC(C)CC2)c2c(C)c(C(=O)N3CCOCC3)sc2n1 [Compound 1424A12] is −2.898

---

Target: PDE4A5 (Rattus norvegicus, UniProt P54748)
Construct: targets used in the assays are full-length proteins (as opposed to simply the catalytic domain); expressed in transfected cells; host or cells: Schizosaccharomyces pombe, PDE gene integrated in place of cgs2
Sequence (P54748 whole entry, the tested form may be a part): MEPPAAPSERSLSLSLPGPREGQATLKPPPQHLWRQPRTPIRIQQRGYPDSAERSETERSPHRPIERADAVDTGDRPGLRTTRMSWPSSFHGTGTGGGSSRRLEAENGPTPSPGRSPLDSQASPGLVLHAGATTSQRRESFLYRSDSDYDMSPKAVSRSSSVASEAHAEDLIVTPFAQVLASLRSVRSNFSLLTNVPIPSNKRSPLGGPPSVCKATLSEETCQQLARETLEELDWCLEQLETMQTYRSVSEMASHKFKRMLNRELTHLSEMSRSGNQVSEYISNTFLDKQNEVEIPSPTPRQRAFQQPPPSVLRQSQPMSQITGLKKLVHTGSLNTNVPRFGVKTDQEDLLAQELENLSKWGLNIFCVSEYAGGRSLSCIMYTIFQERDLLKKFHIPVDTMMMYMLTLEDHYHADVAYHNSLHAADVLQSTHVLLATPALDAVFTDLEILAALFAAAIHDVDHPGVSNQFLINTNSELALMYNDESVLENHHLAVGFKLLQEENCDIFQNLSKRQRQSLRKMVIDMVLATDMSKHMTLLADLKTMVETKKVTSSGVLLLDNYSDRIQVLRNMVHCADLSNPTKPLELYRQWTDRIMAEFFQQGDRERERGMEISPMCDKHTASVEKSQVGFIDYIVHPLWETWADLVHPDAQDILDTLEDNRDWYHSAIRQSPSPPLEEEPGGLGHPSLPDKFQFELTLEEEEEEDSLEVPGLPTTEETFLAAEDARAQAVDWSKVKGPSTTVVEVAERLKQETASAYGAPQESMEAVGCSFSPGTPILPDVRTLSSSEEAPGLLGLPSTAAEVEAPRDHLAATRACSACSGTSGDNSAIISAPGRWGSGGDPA
Assay: 5FOA growth assay in fission yeast strain expressing PDE4A5
Format: cell-based
Conditions: high throughput 5FOA growth screen
Protocol: High throughput drug screens were carried out at the Broad Institute's Chemical Biology Program screening facility (Broad Institute, Cambridge, Mass.). Depending upon the strain, cultures were pregrown to exponential phase in EMM complete medium containing from 0.5 to 2.5 mM cAMP to repress fbp1-ura4 transcription. […] Optical densities (OD600) of cultures were measured using a microplate reader. […]
resultType: Composite Z score, PDE4A5
Please state the value as a number alone, without comment.

Field: example entries. Status: answers known.
[
  {
    "compound": "CCNc1nc(SCC(=O)OCC)nc2sc3c(c12)CCC(C)C3 (stereo not shown)",
    "Composite Z score, PDE4A5": "−0.22"
  },
  {
    "compound": "CCNc1nc(SCC(=O)NC(=O)NCc2ccccc2)nc2sc3c(c12)CCN(C)C3",
    "Composite Z score, PDE4A5": 1.0728
  }
]

Composite Z score, PDE4A5 for CCN(CC)c1nc(C)nc2sc(C(=O)Nc3cc(Cl)ccc3OC)c(C)c12 is 0.9752

Composite Z score, PDE4A5 for Cc1c(C(=O)N(C)Cc2ccccc2)sc2ncnc(N3CCN(c4ccccc4)CC3)c12 is 0.7964

Composite Z score, PDE4A5 for COc1cc(OC)c(NC(=O)c2sc3ncnc(N4CCCCC4C)c3c2C)cc1Cl (stereo not shown) is 0.4891

Composite Z score, PDE4A5 for CCOC(=O)c1sc2nc(C)nc(N(C)Cc3ccccc3)c2c1C is 13.196

Composite Z score, PDE4A5 for Cc1c(C(=O)NCCC(C)C)sc2ncnc(N3CCOCC3)c12 is −0.722

---

target: PDE4B3 (Mus musculus); construct: targets used in the assays are full-length proteins (as opposed to simply the catalytic domain); expressed in transfected cells; host or cells: Schizosaccharomyces pombe, PDE gene integrated in place of cgs2; experiment: 5FOA growth assay in fission yeast strain expressing PDE4B3; type: cell-based, Murine; details: 20 uM; PDE 4B3
resultType: 1 Assay (20 uM) 4B3 (ND ND ND ND)
// units = ND ND ND ND; emit number, no label

Field: example entries. Status: answers known.
[
  {
    "smilesText": "C=CCn1c2ccc(Br)cc2c2nc3ccccc3nc21",
    "1 Assay (20 uM) 4B3, ND ND ND ND": 56.91
  },
  {
    "smilesText": "C=CCn1c2ccccc2c2nc3ccccc3nc21",
    "1 Assay (20 uM) 4B3, ND ND ND ND": 103.46
  }
]

Now look at this entry.
1 Assay (20 uM) 4B3 for CCn1c2ccccc2c2nc3ccccc3nc21 is 103.69

---

biological target: PDE4B3 (Mus musculus); construct: targets used in the assays are full-length proteins (as opposed to simply the catalytic domain); expressed in transfected cells; host or cells: Schizosaccharomyces pombe, PDE gene integrated in place of cgs2; assay: 5FOA growth assay in fission yeast strain expressing PDE4B3; type: cell-based, Murine; details: high throughput 5FOA growth screen
I would appreciate it if you labelled entries TRUE when Composite Z score, PDE4B3 is -1 or higher, otherwise FALSE.

# count of solved cases: 4
[
  {
    "molecule": "O=C(O)C(Cc1ccccc1)Nc1ncnc2sc3c(c12)CCC3 (centres unmarked) [Compound 1381O17]",
    "discreteLabel": "TRUE"
  },
  {
    "molecule": "N#CC1(c2ccccc2)CCc2c(sc3ncnc(N4CCCC4)c23)C1 (centres unmarked) [Compound 1380I09]",
    "discreteLabel": "FALSE"
  },
  {
    "molecule": "Cc1cc(C)c(C)c(S(=O)(=O)N2CCN(c3ncnc4sc5c(c34)CCCC5)CC2)c1C [Compound 2012L13]",
    "discreteLabel": "TRUE"
  },
  {
    "molecule": "Cc1sc2ncnc(N(C)C)c2c1C [Compound 2085O15]",
    "discreteLabel": "FALSE"
  }
]

Turning now to a further molecule:
State whether the measured Composite Z score, PDE4B3 reaches -1, counting equality as reaching it, for CCC(CO)Nc1nc(C)nc2sc3c(c12)CCCC3 (centres unmarked) [Compound 1426O11]
TRUE

---

target: PDE4A1 (Mus musculus, UniProt O89084); construct: targets used in the assays are full-length proteins (as opposed to simply the catalytic domain); expressed in transfected cells; host or cells: Schizosaccharomyces pombe, PDE gene integrated in place of cgs2; assay: 5FOA growth assay (high throughput screen, ED50) in fission yeast strain expressing PDE4A1; assay type: cell-based; details: high throughput 5FOA growth screen; greater than 8.53 = statistically-significant inhibitor
Sequence (O89084 1-610 isoform O89084-2): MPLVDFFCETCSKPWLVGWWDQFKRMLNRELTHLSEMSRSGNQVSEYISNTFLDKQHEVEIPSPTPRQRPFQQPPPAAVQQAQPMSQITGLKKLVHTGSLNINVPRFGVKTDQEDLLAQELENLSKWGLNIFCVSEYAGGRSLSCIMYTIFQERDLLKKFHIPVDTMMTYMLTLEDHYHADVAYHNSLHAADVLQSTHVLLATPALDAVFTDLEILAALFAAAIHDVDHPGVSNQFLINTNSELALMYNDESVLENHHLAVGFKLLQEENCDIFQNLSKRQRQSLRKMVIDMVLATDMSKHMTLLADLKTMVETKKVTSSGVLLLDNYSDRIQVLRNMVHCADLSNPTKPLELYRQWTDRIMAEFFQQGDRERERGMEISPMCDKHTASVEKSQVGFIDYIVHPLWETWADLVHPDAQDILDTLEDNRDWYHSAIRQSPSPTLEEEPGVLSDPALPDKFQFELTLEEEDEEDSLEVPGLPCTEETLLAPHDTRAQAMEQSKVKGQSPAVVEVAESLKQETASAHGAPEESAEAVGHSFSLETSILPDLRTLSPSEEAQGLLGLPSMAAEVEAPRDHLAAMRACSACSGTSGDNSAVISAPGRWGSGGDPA
resultType: Composite Z score, PDE4A1
Please state the value as a number alone, without comment.

Field: example entries. Status: answers known.
[
  {
    "smilesText": "COCCCNC(=O)c1sc2ncnc(N3CCN(c4ccccc4F)CC3)c2c1C",
    "measuredTarget": "PDE4A1 (Mus musculus, UniProt O89084)",
    "Composite Z score, PDE4A1": 2.6846
  },
  {
    "smilesText": "Cc1c(C(=O)Nc2ccc(F)cc2F)sc2ncnc(N(C)c3ccccc3)c12",
    "measuredTarget": "PDE4A1 (Mus musculus, UniProt O89084)",
    "Composite Z score, PDE4A1": 25.972
  },
  {
    "smilesText": "CCNc1nc(SCC(=O)NC(=O)NCc2ccccc2)nc2sc3c(c12)CCN(C)C3",
    "measuredTarget": "PDE4A1 (Mus musculus, UniProt O89084)",
    "Composite Z score, PDE4A1": "−0.307"
  }
]

Now look at this entry.
Composite Z score, PDE4A1 for O=C(Nc1ncnc2sc3c(c12)CCC3)c1cccs1 is 7.8022
